Target: D(1A) dopamine receptor (Homo sapiens, UniProt P21728)
Sequence (P21728 whole entry): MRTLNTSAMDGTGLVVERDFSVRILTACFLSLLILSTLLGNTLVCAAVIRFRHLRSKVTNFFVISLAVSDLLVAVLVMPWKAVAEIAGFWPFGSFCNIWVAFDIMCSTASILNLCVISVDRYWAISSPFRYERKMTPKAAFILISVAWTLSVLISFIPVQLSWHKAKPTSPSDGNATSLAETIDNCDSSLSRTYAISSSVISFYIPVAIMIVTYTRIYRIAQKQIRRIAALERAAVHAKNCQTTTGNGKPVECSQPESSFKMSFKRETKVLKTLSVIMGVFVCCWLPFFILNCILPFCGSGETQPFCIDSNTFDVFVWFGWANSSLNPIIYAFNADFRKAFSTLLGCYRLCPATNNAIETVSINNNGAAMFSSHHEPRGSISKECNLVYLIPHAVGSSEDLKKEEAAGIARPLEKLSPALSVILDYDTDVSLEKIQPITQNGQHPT
Assay: Displacement of [3H]SCH23390 from human dopamine D1 receptor transfected in HEK293 cells after 2 hrs by scintillation counting analysis
Assay type: cell-based
Conditions: read-out: pKi (converted)
# key: entry, value: Ki
# do not omit the unit; it follows the number

Task: Param readout= Ki; system= D(1A) dopamine receptor (Homo sapiens, UniProt P21728); entry= Oc1ccc2c(c1)O[C@@H](CNCc1ccc(I)cc1)CC2 ; returns value.
Result: 8.13 µM

Task: Param readout= Ki; system= D(1A) dopamine receptor (Homo sapiens, UniProt P21728); entry= Oc1ccc2c(c1)O[C@@H](CNCc1ccc(OCCCCF)cc1)CC2 ; returns value.
Result: 6.61 µM

Task: Param readout= Ki; system= D(1A) dopamine receptor (Homo sapiens, UniProt P21728); entry= Oc1ccc2c(c1)O[C@@H](CNCc1cccc(I)c1)CC2 ; returns value.
Result: 3.89 µM
